# Target: T1, human amylin receptor 3 (human, UniProt P30988 25-474; O60896 24-148)
# T1 sequence (looked up) 1: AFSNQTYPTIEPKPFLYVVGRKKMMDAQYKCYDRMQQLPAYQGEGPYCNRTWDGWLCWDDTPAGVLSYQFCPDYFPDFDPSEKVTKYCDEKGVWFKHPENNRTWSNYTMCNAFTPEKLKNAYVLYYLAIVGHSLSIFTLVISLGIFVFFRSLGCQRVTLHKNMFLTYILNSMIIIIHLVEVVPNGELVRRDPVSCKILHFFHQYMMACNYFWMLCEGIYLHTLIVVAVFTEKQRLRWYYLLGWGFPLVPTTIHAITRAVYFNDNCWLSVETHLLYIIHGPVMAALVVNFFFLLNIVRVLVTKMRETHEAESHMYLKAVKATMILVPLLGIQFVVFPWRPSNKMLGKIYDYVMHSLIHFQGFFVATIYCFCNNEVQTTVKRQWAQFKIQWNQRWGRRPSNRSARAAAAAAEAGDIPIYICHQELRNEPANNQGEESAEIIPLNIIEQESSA
# T1 sequence (looked up) 2: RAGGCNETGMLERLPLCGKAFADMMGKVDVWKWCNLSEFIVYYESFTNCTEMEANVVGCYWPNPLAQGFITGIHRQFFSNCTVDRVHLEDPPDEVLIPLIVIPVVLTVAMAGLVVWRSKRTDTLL
# Assay Method Text: cell-based or functional assay
Ends that are not written are not given here. mPEG40KD = methoxy-PEG of 40 kDa
Result Type: Functional EC50, Human AMY3 (nM)
Report only the number, with the unit nM understood.

| Binder | Test Value |
| --- | --- |
| CNTATCATQRLANFLVHSSNNFGPILPPTNVGSNK(mPEG40KD)Y-NH2 (ends and bridges not checked, also called Cmpd 96) [[K^36(mPEG40KD)]-Cmpd 58] | 3.07 |

Per the records, this binder ( CNTATCATQRLANFLK(mPEG 40 kDa)HSSNNFGPILPPTNVGSNTY-NH2 (ends and bridges not checked, also called Cmpd 89) [[K^17(mPEG40KD)]-Cmpd 58] ) has Functional EC50, Human AMY3 equal to 2.23

The binder identified as CNTATCATQRLANFLVHSSNNFGPK(mPEG40KD)LPPTNVGSNTY-NH2 (ends and bridges not checked, also called Cmpd 77) [[K^26(mPEG40KD)]-Cmpd 60] registered its Functional EC50, Human AMY3 at 0.078

Memo: CNTATCATQRLANFLVHSSNK(mPEG 40 kDa)FGPILPPTNVGSNTY-NH2 (ends and bridges not checked, also called Cmpd 85) [[K^22(mPEG40KD)]-Cmpd 58] , reported Functional EC50, Human AMY3: 1.66

Record CNTATCATQRLANFLVHSSNNFGPILPK(mPEG40KD)TNVGSNTY-NH2 (ends and bridges not checked, also called Cmpd 84) [[K^29(mPEG40KD)]-Cmpd 66] . Reported Functional EC50, Human AMY3: 0.11

Quick note, Functional EC50, Human AMY3 for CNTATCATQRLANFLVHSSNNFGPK(mPEG40KD)LPPTNVGSNTY-NH2 (ends and bridges not checked, also called Cmpd 88) [[K^26(mPEG40KD)]-Cmpd 58] landed at 0.082

# Functional EC50, Human AMY3 of CNTATCATQRLANFLVHSSNNFGPILK(mPEG40KD)PTNVGSNTY-NH2 (ends and bridges not checked, also called Cmpd 83) [[K^28(mPEG40KD)]-Cmpd 65] = 0.2

Input CNTATCATQRLANFLVHSSNNFGPILPPTNK(mPEG40KD)GSNTY-NH2 (ends and bridges not checked, also called Cmpd 92) [[K^32(mPEG40KD)]-Cmpd 58] . Output Functional EC50, Human AMY3: 24.7

Entry CNTATCATQRLANFLVHSSNNFGPILPPTNVK(mPEG40KD)SNTY-NH2 (ends and bridges not checked, also called Cmpd 93) [[K^33(mPEG40KD)]-Cmpd 58] — recorded Functional EC50, Human AMY3 = 1.69

Functional EC50, Human AMY3 in this record for CNTATCATQRLANFLVHSSNNFGPILPPTNVGSK(mPEG40KD)TY-NH2 (ends and bridges not checked, also called Cmpd 95) [[K^35(mPEG40KD)]-Cmpd 58] : 0.122
